experimental target: EGFR kinase (Homo sapiens)
Sequence (P00533 25-1210): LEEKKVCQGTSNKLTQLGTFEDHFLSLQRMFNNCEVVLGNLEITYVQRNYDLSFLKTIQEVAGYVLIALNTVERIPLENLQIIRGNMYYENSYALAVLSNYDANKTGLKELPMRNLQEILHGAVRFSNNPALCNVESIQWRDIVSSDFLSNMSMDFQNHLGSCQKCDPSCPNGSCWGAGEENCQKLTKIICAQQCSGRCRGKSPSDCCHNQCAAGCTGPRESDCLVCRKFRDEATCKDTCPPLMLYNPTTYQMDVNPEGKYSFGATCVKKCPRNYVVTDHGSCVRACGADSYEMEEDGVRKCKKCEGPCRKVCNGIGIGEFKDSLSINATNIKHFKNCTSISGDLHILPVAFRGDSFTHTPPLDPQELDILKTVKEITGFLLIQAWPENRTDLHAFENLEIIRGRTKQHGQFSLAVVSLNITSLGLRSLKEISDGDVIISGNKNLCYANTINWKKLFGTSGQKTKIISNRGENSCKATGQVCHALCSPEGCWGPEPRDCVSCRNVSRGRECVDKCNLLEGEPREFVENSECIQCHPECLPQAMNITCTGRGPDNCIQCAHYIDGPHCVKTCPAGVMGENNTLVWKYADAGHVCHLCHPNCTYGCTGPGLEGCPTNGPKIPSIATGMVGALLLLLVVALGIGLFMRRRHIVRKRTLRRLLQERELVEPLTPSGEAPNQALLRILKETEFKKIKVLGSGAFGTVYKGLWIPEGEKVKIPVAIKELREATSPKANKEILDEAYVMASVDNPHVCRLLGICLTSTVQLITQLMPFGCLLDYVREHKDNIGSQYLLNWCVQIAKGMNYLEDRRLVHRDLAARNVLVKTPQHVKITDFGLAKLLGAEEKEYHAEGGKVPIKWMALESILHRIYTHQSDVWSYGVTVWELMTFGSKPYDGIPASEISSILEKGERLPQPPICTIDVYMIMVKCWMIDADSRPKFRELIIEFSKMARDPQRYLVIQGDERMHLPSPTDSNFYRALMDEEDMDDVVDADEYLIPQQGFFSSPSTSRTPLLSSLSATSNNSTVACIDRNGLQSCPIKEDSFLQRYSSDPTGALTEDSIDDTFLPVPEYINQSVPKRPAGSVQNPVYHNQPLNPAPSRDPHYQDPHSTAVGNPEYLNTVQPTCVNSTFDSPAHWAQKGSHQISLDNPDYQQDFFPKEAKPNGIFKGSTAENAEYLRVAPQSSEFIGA
measurement label: IC50

// query Fill in the blank: the reported IC50 of C[C@@H](Nc1cnnc2ccc(C3=CCNCC3)cc12)c1cccc(C(F)F)c1F [Example 2] is ____.
// result > 10 µM

====

experimental target: protein-protein interaction between SOS1 and KRAS G12C (Homo sapiens, UniProt Q07889)
Construct: purchased Cisbio 64KRASG12PEG
Sequence (Q07889 whole entry, stated change not applied): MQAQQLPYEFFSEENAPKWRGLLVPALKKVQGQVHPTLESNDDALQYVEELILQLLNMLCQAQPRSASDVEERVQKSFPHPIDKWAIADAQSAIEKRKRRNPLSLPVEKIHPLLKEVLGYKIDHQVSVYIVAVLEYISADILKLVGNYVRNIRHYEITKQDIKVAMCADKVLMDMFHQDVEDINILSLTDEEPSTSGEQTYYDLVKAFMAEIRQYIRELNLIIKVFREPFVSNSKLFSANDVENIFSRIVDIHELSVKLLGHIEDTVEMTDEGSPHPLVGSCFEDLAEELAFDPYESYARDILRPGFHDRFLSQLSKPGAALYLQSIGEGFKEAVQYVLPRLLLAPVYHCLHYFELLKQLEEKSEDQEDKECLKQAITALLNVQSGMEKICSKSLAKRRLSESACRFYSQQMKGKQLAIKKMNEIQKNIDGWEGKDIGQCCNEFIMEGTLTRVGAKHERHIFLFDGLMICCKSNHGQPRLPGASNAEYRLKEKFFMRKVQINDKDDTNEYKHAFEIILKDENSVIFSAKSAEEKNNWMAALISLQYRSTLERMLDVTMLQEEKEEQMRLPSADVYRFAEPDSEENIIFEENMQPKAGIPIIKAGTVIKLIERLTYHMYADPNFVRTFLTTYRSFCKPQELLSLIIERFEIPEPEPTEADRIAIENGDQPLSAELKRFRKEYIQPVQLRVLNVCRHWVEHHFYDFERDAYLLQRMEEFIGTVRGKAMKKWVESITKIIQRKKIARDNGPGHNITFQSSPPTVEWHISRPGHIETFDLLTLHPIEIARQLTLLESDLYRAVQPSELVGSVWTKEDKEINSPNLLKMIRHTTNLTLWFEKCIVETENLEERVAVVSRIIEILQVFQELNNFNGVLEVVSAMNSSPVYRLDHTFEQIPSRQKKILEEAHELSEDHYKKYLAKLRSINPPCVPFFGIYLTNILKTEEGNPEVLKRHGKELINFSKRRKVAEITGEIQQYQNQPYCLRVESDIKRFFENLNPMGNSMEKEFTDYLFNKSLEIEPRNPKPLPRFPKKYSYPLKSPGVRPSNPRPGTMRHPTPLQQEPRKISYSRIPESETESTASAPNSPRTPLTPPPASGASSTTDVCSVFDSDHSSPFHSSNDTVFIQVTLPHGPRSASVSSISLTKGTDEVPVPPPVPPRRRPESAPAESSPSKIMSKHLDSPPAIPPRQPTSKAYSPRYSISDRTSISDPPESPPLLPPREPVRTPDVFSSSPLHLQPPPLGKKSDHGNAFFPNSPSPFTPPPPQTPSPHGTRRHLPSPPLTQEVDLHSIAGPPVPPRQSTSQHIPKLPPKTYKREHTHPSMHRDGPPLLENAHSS
method summary: KRAS::SOS1 HTRF binding analysis (KRAS G12C/SOS1 binding kit)
measurement conditions: compound at 0.1 uM
Procedure: 1-1. KRAS::SOS1 HTRF binding analysis […] Specifically, a KRAS G12C/SOS1 binding kit (64KRASG12PEG, Cisbio, France) was purchased and used. […] The plates were sealed and allowed to react at room temperature for one hour and 40 minutes, and then 665 nm wavelength and 620 nm wavelength were measured using a HTRF® compatible reader (Synergy H4, BioTeK, USA), and the ratio of receptor and donor emission signals for each well was calculated as 665 nm/620 nm×10^4. […]
Parameter: inhibition at 0.1 µM. Scope: all listed entries.

Some entries whose results are on file:
C[C@@H](Nc1cnnc2ccc(N3CCN(C(=O)[C@H]4CCOC4)CC3)cc12)c1cccc(C(F)F)c1F	40 to 70%
Cc1c([C@@H](C)Nc2cnnc3ccc(N4CC5CC(C4)O5)cc23)cccc1C(F)(F)F	0 to 40%
C[C@@H](Nc1cnnc2ccc(N3CCN(C(=O)C4COC4)CC3)cc12)c1cccc(C(F)F)c1F	70 to 100%

// query Fill in the blank: the reported inhibition at 0.1 µM of `C[C@@H](Nc1cnnc2ccc(N3CC[C@H](O)C3)cc12)c1cccc(C(F)F)c1F` is ____.
// result 0 to 40%
